I'd appreciate it if you could supply K app values for the items below.
- System: Calf thymus DNA
- procedure_text: Apparent calf thymus DNA-binding constant
- Format: nucleic-acid assay
- details: Bos taurus
Supply the numeric figure in M⁻¹, leaving out any unit text.

# input Look up and state reported K app for COc1cc2nc3c(c4c2c(c1OC)N(C(=O)CN1CCN(C)CC1)CC4)CCc1cc(OCCN)ccc1-3
# output 4.51e+06

# input Indicate its recorded K app; the compound in question is COc1cc2nc3c(c4c2c(c1OC)NCC4)CCc1cc(OCCN)ccc1-3
# output 2.01e+06

# input Please give measured K app of the following entry: COc1cc2nc3c(c4c2c(c1OC)N(C(=O)CN1CCN(C)CC1)CC4)CCc1cc(OCCCN2CCN(C)CC2)ccc1-3
# output 3.04e+06

# input For the compound COc1cc2nc3c(c4c2c(c1OC)NCC4)CCc1cc(OCCCN2CCN(C)CC2)ccc1-3 , give its reported K app.
# output 4.98e+06

# input Provide measured K app value, entry: COc1cc2nc3c(c4c2c(c1OC)N(C(C)=O)CC4)CCc1cc(OCCN)ccc1-3
# output 4200

# input Give the measured K app for COc1ccc2c(c1)-c1nc3cc(OC)c(OC)c4c3c(c1CC2)CCN4
# output 2400

# input Specify K app for COc1cc2nc3c(c4c2c(c1OC)NCC4)CCc1ccccc1-3 and stop.
# output 3600

# input Check the records and state K app for COc1cc2nc3c(c4c2c(c1OC)NCC4)CCc1cc(O)ccc1-3
# output 1600

# input // Input: COc1cc2nc3c(c4c2c(c1OC)N(C(=O)CN1CCN(C)CC1)CC4)CCc1cc(OCCCN)ccc1-3 . Output its K app only.
# output 6.66e+06

# input Identify measured K app associated with COc1cc2nc3c(c4c2c(c1OC)N(C(C)=O)CC4)CCc1cc(OCCCN)ccc1-3
# output 6300

# input Provide measured K app value, entry: COc1ccc2c(c1)CCc1c-2nc2cc(OC)c(OC)c3c2c1CCN3
# output 3000

# input Look up and report measured K app for this entry: COc1cc2nc3c(c4c2c(c1OC)NCC4)CCc1cc(OCCCN)ccc1-3
# output 6.86e+06

* * *

- System: PC-3
- procedure_text: In vitro inhibitory concentration against human prostate carcinoma PC-3 cell line using MTT assay after incubation for 72 h
- Assay type: functional, cell-based
- details: PC-3, 72 h
Task for the reader: assign each of the following compounds its reported IC50.

# input Please respond with reported IC50 (system PC-3) for COc1ccc2c(c1)CCc1c-2nc2cc(OC)c(OC)c3c2c1CCN3C(C)=O .
# output > 1000 nM

# input Fill in: IC50 on PC-3, entry COc1cc2nc3c(c4c2c(c1OC)NCC4)CCc1cc(OCCCN)ccc1-3
# output > 1000 nM

# input Enter recorded IC50 with PC-3 for COc1cc2nc3c(c4c2c(c1OC)N(C(=O)CN1CCN(C)CC1)CC4)CCc1cc(OCCN)ccc1-3 here.
# output > 1000 nM

# input Supply IC50 measured with PC-3 for COc1cc2nc3c(c4c2c(c1OC)N(C(C)=O)CC4)CCc1cc(OCCN)ccc1-3 .
# output > 1000 nM

# input Fill in IC50 for COc1cc2nc3c(c4c2c(c1OC)NCC4)CCc1cc(O)ccc1-3 tested with PC-3.
# output > 1000 nM

# input GET IC50 where system = PC-3 and item = COc1cc2nc3c(c4c2c(c1OC)NCC4)CCc1cc(OCCCN2CCN(C)CC2)ccc1-3
# output 19.9 nM

# input Return reported IC50 for target or system PC-3, item COc1cc2nc3c(c4c2c(c1OC)N(C(C)=O)CC4)CCc1cc(O)ccc1-3 .
# output > 1000 nM

# input Look up and report measured IC50 (PC-3) for the following compound: COc1cc2nc3c(c4c2c(c1OC)N(C(C)=O)CC4)CCc1cc(OCCCN2CCN(C)CC2)ccc1-3
# output 11.2 nM

# input Specify the recorded IC50 for COc1cc2nc3c(c4c2c(c1OC)N(C(=O)CN1CCN(C)CC1)CC4)CCc1ccccc1-3 , system: PC-3.
# output > 1000 nM

* * *

- System: Nucleic Acid
- procedure_text: Binding to DNA as change in thermal denaturation temperature of poly(dAT)2 DNA
- Type: nucleic-acid assay
reported_property: ΔTm (°C)
All answers are understood in °C, so give the number only.

# input Tell me measured ΔTm for COc1cc2nc3c(c4c2c(c1OC)NCC4)CCc1cc(OCCCN2CCN(C)CC2)ccc1-3 please.
# output 7.5

# input Please supply the value of reported ΔTm for the item COc1cc2nc3c(c4c2c(c1OC)N(C(=O)CN1CCN(C)CC1)CC4)CCc1ccccc1-3
# output 0

# input Report ΔTm, nothing else, for this compound: COc1cc2nc3c(c4c2c(c1OC)NCC4)CCc1cc(OCCN)ccc1-3
# output 12.1

# input Identify ΔTm associated with the compound COc1ccc2c(c1)-c1nc3cc(OC)c(OC)c4c3c(c1CC2)CCN4
# output 0

# input State, in one line, measured ΔTm of COc1cc2nc3c(c4c2c(c1OC)NCC4)CCc1cc(OCCCN)ccc1-3
# output 11.9

* * *

Can you tell me ΔTm for the items I'm about to list?
- System: Nucleic Acid
- procedure_text: Binding to DNA as change in thermal denaturation temperature of poly(dAT)2 DNA
- Format: nucleic-acid assay
I'd appreciate it if you included the unit after the number.

# input Supply reported ΔTm belonging to this molecule: COc1cc2nc3c(c4c2c(c1OC)N(C(C)=O)CC4)CCc1cc(OCCCN)ccc1-3
# output 3.1 °C

# input Indicate its recorded ΔTm; the molecule in question is COc1cc2nc3c(c4c2c(c1OC)NCC4)CCc1cc(O)ccc1-3
# output 1.1 °C

# input Please look at this molecule and report its ΔTm: COc1cc2nc3c(c4c2c(c1OC)N(C(=O)CN1CCN(C)CC1)CC4)CCc1cc(OCCCN)ccc1-3
# output 11.9 °C

# input Could you please provide reported ΔTm for COc1cc2nc3c(c4c2c(c1OC)NCC4)CCc1ccccc1-3 ? Thanks!
# output 0 °C

# input Name the recorded ΔTm of the molecule listed here: COc1cc2nc3c(c4c2c(c1OC)N(C(C)=O)CC4)CCc1cc(OCCCN2CCN(C)CC2)ccc1-3
# output 0.9 °C

# input Please report the measured ΔTm for COc1ccc2c(c1)-c1nc3cc(OC)c(OC)c4c3c(c1CC2)CCN4C(=O)CN1CCN(C)CC1
# output 0.9 °C

# input Answer with the recorded ΔTm for the molecule listed here: COc1ccc2c(c1)CCc1c-2nc2cc(OC)c(OC)c3c2c1CCN3C(=O)CN1CCN(C)CC1
# output 0.9 °C

# input Respond only with ΔTm recorded for COc1ccc2c(c1)CCc1c-2nc2cc(OC)c(OC)c3c2c1CCN3
# output 0 °C

# input Complete the entry with ΔTm for COc1cc2nc3c(c4c2c(c1OC)N(C(C)=O)CC4)CCc1cc(OCCN)ccc1-3
# output 2.1 °C

# input Name the recorded ΔTm of the item COc1cc2nc3c(c4c2c(c1OC)N(C(=O)CN1CCN(C)CC1)CC4)CCc1cc(OCCN)ccc1-3 in your answer.
# output 11.9 °C

# input Please look at this molecule and report its ΔTm: COc1cc2nc3c(c4c2c(c1OC)N(C(=O)CN1CCN(C)CC1)CC4)CCc1cc(OCCCN2CCN(C)CC2)ccc1-3
# output 0.9 °C

* * *

- Tested on: Calf thymus DNA
- procedure_text: Apparent calf thymus DNA-binding constant
- Format: nucleic-acid assay
- details: Bos taurus
reported_property: K app

# input Return reported K app. Input compound: COc1cc2nc3c(c4c2c(c1OC)N(C(=O)CN1CCN(C)CC1)CC4)CCc1ccccc1-3
# output < 50000 M⁻¹

# input Give me measured K app, please, for this compound: COc1ccc2c(c1)-c1nc3cc(OC)c(OC)c4c3c(c1CC2)CCN4C(=O)CN1CCN(C)CC1
# output < 50000 M⁻¹

# input # return recorded K app for input COc1ccc2c(c1)CCc1c-2nc2cc(OC)c(OC)c3c2c1CCN3C(=O)CN1CCN(C)CC1
# output < 50000 M⁻¹

The reported measurements were obtained from ChEMBL document CHEMBL1144957.
